Biological target: human 5-HT2A receptor (Homo sapiens)
Assay: 5-HT2A FLIPR assay (calcium response to DOI) in CHO cells
Settings: antagonist inhibition of 3 nM DOI stimulation, CHO cells, FLIPR
Where a name gives a salt, the structure may show the parent alone.
READOUT_NAME: IC50 (nM)

Known IC50 results, listed for orientation:
[
  {
    "COMPOUND": "NC[C@@H](O)[C@H](c1ccccc1)n1ccc2cc(OCc3ccccc3)ccc21 [Example 82, hydrochloride]",
    "IC50 [nM]": 796
  },
  {
    "COMPOUND": "CNC[C@@H](O)[C@H](c1ccccc1)n1ccc2cccc(-c3ccccc3)c21 [Example 23, hydrochloride]",
    "IC50 [nM]": 2600
  }
]

[P] CCCNC[C@@H](O)[C@H](c1ccccc1)N1C(=O)C2(CCCCC2)c2ccc(F)cc21 [Example 98, hydrochloride]
[Q] CNC[C@@H](O)[C@H](c1ccccc1)n1ccc2cc(OCc3ccc(F)cc3)ccc21 [Example 13, hydrochloride]
Thinking about recorded IC50 values, which is higher, P or Q ? State your choice using its label.
P
(P: 672 nM, Q: 468 nM)

[P] CNC[C@@H](O)[C@H](c1ccccc1)N1C(=O)C2(CCCCC2)c2cccc(Cl)c21 [Example 31, hydrochloride]
[Q] CNC[C@@H](O)[C@H](c1ccccc1)N1C(=O)C2(CCCCC2)c2ccc(OC)cc21 [Example 106, hydrochloride]
Consider P and Q . Which of these has its IC50 at a higher number? Kindly give the label for the entry you pick.
Q

====

Target: human hNET (Homo sapiens, UniProt P23975)
Sequence (P23975 whole entry): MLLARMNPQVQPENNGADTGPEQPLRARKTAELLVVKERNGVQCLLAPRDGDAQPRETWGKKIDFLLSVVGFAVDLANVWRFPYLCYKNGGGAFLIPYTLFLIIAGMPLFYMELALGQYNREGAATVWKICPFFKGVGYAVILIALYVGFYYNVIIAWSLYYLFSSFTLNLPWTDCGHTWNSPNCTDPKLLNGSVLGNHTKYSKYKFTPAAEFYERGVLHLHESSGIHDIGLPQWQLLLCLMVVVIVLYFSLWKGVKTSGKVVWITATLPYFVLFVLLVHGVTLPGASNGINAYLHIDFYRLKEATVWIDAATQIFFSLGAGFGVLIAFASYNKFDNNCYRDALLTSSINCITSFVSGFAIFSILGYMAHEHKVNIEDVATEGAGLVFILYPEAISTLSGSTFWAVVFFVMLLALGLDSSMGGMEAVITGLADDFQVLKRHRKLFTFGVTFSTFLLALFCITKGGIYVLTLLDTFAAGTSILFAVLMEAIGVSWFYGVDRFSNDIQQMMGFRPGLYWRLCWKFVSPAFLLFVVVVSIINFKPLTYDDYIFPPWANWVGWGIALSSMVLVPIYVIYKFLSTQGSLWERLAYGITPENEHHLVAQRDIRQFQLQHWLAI
Assay: Norepinephrine (NE) uptake assay in MDCK-Net6 cells
Conditions: [3H]NE uptake, MDCK-Net6 cells stably transfected with hNET
Where a name gives a salt, the structure may show the parent alone.
READOUT_NAME: EC50 (nM)

Answered cases to consult:
[
  {
    "COMPOUND": "CNC[C@@H](O)[C@H](c1ccccc1)N1C(=O)C2(CCCCC2)c2cc(OCc3ccccc3)ccc21 [Example 67, hydrochloride]",
    "OUTPUT_UNIT": "nM",
    "EC50": 839
  },
  {
    "COMPOUND": "CNC[C@@H](O)[C@H](c1ccccc1)n1ccc2c(OCc3ccccc3)cccc21 [Example 2, hydrochloride]",
    "OUTPUT_UNIT": "nM",
    "EC50": 310
  },
  {
    "COMPOUND": "CNC[C@@H](O)[C@H](c1ccccc1)N1C(=O)C2(CCCCC2)c2ccc(F)cc21 [Example 29, hydrochloride]",
    "OUTPUT_UNIT": "nM",
    "EC50": 43
  },
  {
    "COMPOUND": "CNC[C@@H](O)[C@H](c1ccccc1)N1CC(C(C)C)c2ccccc21 (stereo partly shown) [Example 60, hydrochloride]",
    "OUTPUT_UNIT": "nM",
    "EC50": 67
  },
  {
    "COMPOUND": "CC1(C)CN([C@@H](c2cc(F)cc(F)c2)[C@H](O)CN)c2ccccc21 [Example 61, hydrochloride]",
    "OUTPUT_UNIT": "nM",
    "EC50": 216
  }
]

[a] CNC[C@@H](O)[C@H](c1cc(F)cc(F)c1)N1C(=O)C(C)(C)c2ccccc21 [Example 64, hydrochloride]
[b] CNC[C@@H](O)[C@H](c1ccccc1)n1ccc2cc(OCc3cccc(F)c3)ccc21 [Example 12, hydrochloride]
// compare: a vs b , metric EC50, want the smaller # reply format: chosen label
a

====

The reader will find reported inhibition at 1 µM values listed item by item below.
Molecular target: human 5-HT2A receptor (Homo sapiens, UniProt P28223)
Construct: expressed in transfected cells; host or cells: CHO
Sequence (P28223 whole entry): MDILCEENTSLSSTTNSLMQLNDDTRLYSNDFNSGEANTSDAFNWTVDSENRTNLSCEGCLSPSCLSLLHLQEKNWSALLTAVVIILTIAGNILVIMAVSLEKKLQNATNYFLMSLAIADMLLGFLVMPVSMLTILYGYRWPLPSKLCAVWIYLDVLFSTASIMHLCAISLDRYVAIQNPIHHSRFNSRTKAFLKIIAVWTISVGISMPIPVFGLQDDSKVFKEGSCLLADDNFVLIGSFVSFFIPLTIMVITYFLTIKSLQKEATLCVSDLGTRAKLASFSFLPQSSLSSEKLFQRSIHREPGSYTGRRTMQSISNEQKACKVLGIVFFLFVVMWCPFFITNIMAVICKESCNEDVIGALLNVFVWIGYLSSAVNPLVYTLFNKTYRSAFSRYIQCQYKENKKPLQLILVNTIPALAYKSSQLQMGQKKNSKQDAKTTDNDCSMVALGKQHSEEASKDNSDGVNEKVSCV
Experiment: 5-HT2A FLIPR assay (calcium response to DOI) in CHO cells
Assay type: cell-based
Conditions: CHO, read-out: 5-HT2A Percentage inhibition at 1 μM
Counter-ions that a name gives are not always drawn.
Numeric only. Scale: %

Here's what some known entries look like.
[
  {
    "MOLECULE": "CCCNC[C@@H](O)[C@H](c1ccccc1)n1ccc2cc(OCc3ccccc3)ccc21 [Example 84, hydrochloride]",
    "EXPERIMENTAL_VALUE": 50
  },
  {
    "MOLECULE": "CNC[C@@H](O)[C@H](c1ccccc1)N1C(=O)C2(CCCCC2)c2cc(OC)ccc21 [Example 105, hydrochloride]",
    "EXPERIMENTAL_VALUE": 37
  },
  {
    "MOLECULE": "CNC[C@@H](O)[C@H](c1cccc(F)c1)N1C(=O)C2(CCCCC2)c2ccc(F)cc21 [Example 32, hydrochloride]",
    "EXPERIMENTAL_VALUE": 95
  },
  {
    "MOLECULE": "CNC[C@@H](O)[C@H](c1ccccc1)n1ccc2cc(NC(=O)c3ccc(C)c(Cl)c3)ccc21 [Example 71, hydrochloride]",
    "EXPERIMENTAL_VALUE": 44
  }
]

The value of inhibition at 1 µM measured for the molecule CNC[C@@H](O)[C@H](c1ccccc1)n1ccc2ccc(Oc3ccccc3)cc21 [Example 80, hydrochloride] turned out to be 32

The value of inhibition at 1 µM measured for the molecule CNC[C@@H](O)[C@H](c1ccccc1)n1ccc2ccc(-c3ccccc3)cc21 [Example 22, hydrochloride] turned out to be 16

Looking up CNC[C@@H](O)[C@H](c1ccccc1)N1CCc2cc(NC(=O)C3CCCCC3)ccc21 [Example 76, hydrochloride] , I found its inhibition at 1 µM recorded as 45

====

Target: human 5-HT2A receptor (Homo sapiens)
Experiment: 5-HT2A FLIPR assay (calcium response to DOI) in CHO cells
Conditions: antagonist inhibition of 3 nM DOI stimulation, CHO cells, FLIPR
Where a name gives a salt, the structure may show the parent alone.
READOUT_NAME: IC50 (nM)

[
  {
    "MOLECULE": "CNC[C@@H](O)[C@H](c1ccccc1)n1ccc2cc(OCc3ccc(Cl)cc3)ccc21 [Example 10, hydrochloride]",
    "IC50 / nM": 712
  }
]

[P] CNC[C@@H](O)[C@H](c1ccccc1)n1ccc2cc(OCc3ccccc3OC)ccc21 [Example 5, hydrochloride]
[Q] CNC[C@@H](O)[C@H](c1ccccc1)N1C(=O)C2(CCCCC2)c2cc(F)ccc21 [Example 30, hydrochloride]
[R] CNC[C@@H](O)[C@H](c1ccccc1)N1C(=O)C2(CCCCC2)c2c1ccc(F)c2F [Example 109, hydrochloride]
Put the items in sequence by IC50, from largest down. Reply: labels, ordered per the request.
R, P, Q
(R: 1480 nM, P: 678 nM, Q: 283 nM)

====

Molecular target: human hNET (Homo sapiens, UniProt P23975)
Construct: expressed in transfected cells; host or cells: MDCK (MDCK-Net6)
Test: Norepinephrine (NE) uptake assay in MDCK-Net6 cells
Assay type: cell-based
Settings: at 1 μM; [3H]NE uptake, MDCK-Net6 cells; read-out: hNET Percentage inhibition at 1 μM
Where a name gives a salt, the structure may show the parent alone.
READOUT_NAME: inhibition at 1 µM (%)

Would you please look over these solved cases?
[
  {
    "COMPOUND": "CCCNC[C@@H](O)[C@H](c1ccccc1)n1ccc2cc(OCc3ccccc3)ccc21 [Example 84, hydrochloride]",
    "inhibition at 1 µM (%)": 11
  },
  {
    "COMPOUND": "CNC[C@@H](O)[C@H](c1ccccc1)N1CCc2cc(NC(=O)C3CCCCC3)ccc21 [Example 76, hydrochloride]",
    "inhibition at 1 µM (%)": 54
  },
  {
    "COMPOUND": "CNC[C@@H](O)[C@H](c1ccccc1)n1ccc2cc(C)ncc21 [Example 47, hydrochloride]",
    "inhibition at 1 µM (%)": 35
  },
  {
    "COMPOUND": "NC[C@@H](O)[C@H](c1ccccc1)N1C(=O)C2(CCCCC2)c2cc(F)ccc21 [Example 99, hydrochloride]",
    "inhibition at 1 µM (%)": 11
  },
  {
    "COMPOUND": "CN(C)C[C@@H](O)[C@H](c1ccccc1)n1ccc2cc(OCc3ccccc3)ccc21 [Example 86, hydrochloride]",
    "inhibition at 1 µM (%)": 22
  }
]

[A] CNC[C@@H](O)[C@H](c1cccc(F)c1)n1cc(-c2ccccc2Oc2ccccc2)c2ccccc21 [Example 37, hydrochloride]
[B] CNC[C@@H](O)[C@H](c1ccccc1)n1ccc2cccc(-c3ccccc3)c21 [Example 23, hydrochloride]
Please let me know which one, A or B , has a lower measured inhibition at 1 µM value. I would appreciate it if you answered with the label of your choice.
A
(A: 26%, B: 48%)

====

Target: human 5-HT2A receptor (Homo sapiens)
Test: 5-HT2A FLIPR assay (calcium response to DOI) in CHO cells
Settings: antagonist inhibition of 3 nM DOI stimulation, CHO cells, FLIPR
pIC50: −log10 of the molar value. Counter-ions that a name gives are not always drawn.
READOUT_NAME: pIC50

Below, each entry is followed by its recorded pIC50 result.
[
  {
    "COMPOUND": "CCNC[C@@H](O)[C@H](c1ccccc1)N1C(=O)C2(CCCCC2)c2cc(F)ccc21 [Example 100, hydrochloride]",
    "TARGET_ENTITY": "human 5-HT2A receptor (Homo sapiens)",
    "READOUT_NAME": "pIC50",
    "EXPERIMENTAL_VALUE": 6.42
  },
  {
    "COMPOUND": "CNC[C@@H](O)[C@H](c1ccccc1)n1ccc2cc(OCc3ccccc3F)ccc21 [Example 11, hydrochloride]",
    "TARGET_ENTITY": "human 5-HT2A receptor (Homo sapiens)",
    "READOUT_NAME": "pIC50",
    "EXPERIMENTAL_VALUE": 5.90
  },
  {
    "COMPOUND": "CNC[C@@H](O)[C@H](c1ccccc1)N1C(=O)C2(CCCCC2)c2ccc(F)cc21 [Example 29, hydrochloride]",
    "TARGET_ENTITY": "human 5-HT2A receptor (Homo sapiens)",
    "READOUT_NAME": "pIC50",
    "EXPERIMENTAL_VALUE": 6.97
  },
  {
    "COMPOUND": "CNC[C@@H](O)[C@H](c1ccccc1)n1ccc2cc(C(=O)Nc3cccc(Cl)c3)ccc21 [Example 79, hydrochloride]",
    "TARGET_ENTITY": "human 5-HT2A receptor (Homo sapiens)",
    "READOUT_NAME": "pIC50",
    "EXPERIMENTAL_VALUE": 7.08
  },
  {
    "COMPOUND": "CNC[C@@H](O)[C@H](c1ccccc1)n1ccc2cc(NC(=O)c3cccc(Cl)c3)ccc21 [Example 73, hydrochloride]",
    "TARGET_ENTITY": "human 5-HT2A receptor (Homo sapiens)",
    "READOUT_NAME": "pIC50",
    "EXPERIMENTAL_VALUE": 6.20
  }
]

[1] CCCNC[C@@H](O)[C@H](c1ccccc1)N1C(=O)C2(CCCCC2)c2cc(F)ccc21 [Example 102, hydrochloride]
[2] CNC[C@@H](O)[C@H](c1ccccc1)n1ccc2cc(OCc3ccc(C)cc3)ccc21 [Example 16, hydrochloride]
Select the item whose pIC50 value is smaller, choosing between 1 and 2 . Could you answer with the label of the item you picked?
2
(2: 5.38, 1: 6.05)
